Test: Partition coefficient of the compound
Type: ADME
Conditions: CHCl3-0.1 M phosphate buffer (pH 7.4)
Measure: P'
Enter the number alone.

Input: Returns the measured P' for the input compound. Input: CN1CCN(c2cc3c(cc2F)c(=O)c(C(=O)O)cn3[C@@H]2C[C@@H]2F)CC1 (stereo in doubt; 39)
Output: 7

Input: Returns the measured P' for the input compound. Input: CN1CCN(c2cc3c(cc2F)c(=O)c(C(=O)O)cn3C2CC2)CC1
Output: 20

Input: Returns the measured P' for the input compound. Input: O=C(O)c1cn(C2CC2F)c2cc(N3CCNCC3)c(F)cc2c1=O (stereo in doubt; 24)
Output: 0.16

Input: Returns the measured P' for the input compound. Input: CN1CCN(c2cc3c(cc2F)c(=O)c(C(=O)O)cn3C2CC2F)CC1 (stereo in doubt; 26)
Output: 7

Input: Returns the measured P' for the input compound. Input: CN1CCN(c2cc3c(cc2F)c(=O)c(C(=O)O)cn3[C@@H]2C[C@@H]2F)CC1 (stereo in doubt; 38)
Output: 7.3
